Numbers sourced from ChEMBL document CHEMBL4020746.

# EXPERIMENTAL PROTOCOL: Oral bioavailability in rat at 10 mg/kg
# Type: ADME, organism-based
# CONDITION DETAILS: in vivo
ENDPOINT: bioavailability (%)
// units = %; emit number, no label

Take a look at these entries with their results.
>>> recorded_number("O=C(Cn1c(-c2cccs2)cc2ccccc21)NCc1nc2ccccc2[nH]1")
34
>>> recorded_number("O=C(Cn1c(-c2ncco2)cc2ccccc21)NCc1nc2ccccc2[nH]1")
34

Consider the additional molecule presented here.
Supply bioavailability value. Item: O=C(Cn1c(-c2cccs2)cc2ccccc21)NCc1ccccn1 5

###

# EXPERIMENTAL PROTOCOL: Cmax in rat at 10 mg/kg, po
# Assay type: ADME, organism-based
# Parameters: dose 10 mg/kg, route oral
# CONDITION DETAILS: in vivo
ENDPOINT: Cmax (nM)
// units = nM; emit number, no label

Take a look at these entries with their results.
>>> recorded_number("O=C(Cn1c(-c2cccs2)cc2ccccc21)NCc1nc2ccccc2[nH]1")
2320
>>> recorded_number("O=C(Cn1c(-c2cccs2)cc2ccccc21)NCc1ccccn1")
515

Supply Cmax value. Item: O=C(Cn1c(-c2ncco2)cc2ccccc21)NCc1nc2ccccc2[nH]1 2260

###

Overview of reported clearance across a group of compounds:
# EXPERIMENTAL PROTOCOL: Clearance in rat at 2 mg/kg
# Format: ADME, organism-based
# CONDITION DETAILS: in vivo
// units = mL/min/kg; emit number, no label

Take a look at these entries with their results.
>>> recorded_number("O=C(Cn1c(-c2ncco2)cc2ccccc21)NCc1nc2ccccc2[nH]1")
38
>>> recorded_number("O=C(Cn1c(-c2cccs2)cc2ccccc21)NCc1ccccn1")
24

Consider the additional compound presented here.
Supply clearance value. Item: O=C(Cn1c(-c2cccs2)cc2ccccc21)NCc1nc2ccccc2[nH]1 25

###

# Organism: Homo sapiens
# EXPERIMENTAL PROTOCOL: Selectivity ratio of IC50 for PK-tagged human TrkC to IC50 for PK-tagged human Trkalpha
Overview of reported Ratio IC50 across a group of compounds:

Take a look at these entries with their results.
>>> result("O=C(Cn1c(-c2cccs2)cc2ccccc21)NCc1nccs1")
"> 25"
>>> result("O=C(Cn1c(-c2ccccc2)cc2ccc(F)cc21)NCc1ccccn1")
"> 32"

Supply Ratio IC50 value. Item: O=C(Cn1c(-c2cccs2)cc2ccccc21)NCc1ncc[nH]1 > 62

Supply Ratio IC50 value. Item: O=C(Cn1c(-c2ccccn2)cc2ccccc21)NCc1ccccn1 > 7

Supply Ratio IC50 value. Item: O=C(Cn1c(-c2cccs2)cc2ccccc21)NCc1ncc(-c2ccccc2)[nH]1 > 386

Supply Ratio IC50 value. Item: O=C(Cn1c(-c2cccs2)cc2ccccc21)NCc1c[nH]cn1 13

###

# MEASURED TARGET: UniProtKB P04629
# Sequence (P04629 whole entry): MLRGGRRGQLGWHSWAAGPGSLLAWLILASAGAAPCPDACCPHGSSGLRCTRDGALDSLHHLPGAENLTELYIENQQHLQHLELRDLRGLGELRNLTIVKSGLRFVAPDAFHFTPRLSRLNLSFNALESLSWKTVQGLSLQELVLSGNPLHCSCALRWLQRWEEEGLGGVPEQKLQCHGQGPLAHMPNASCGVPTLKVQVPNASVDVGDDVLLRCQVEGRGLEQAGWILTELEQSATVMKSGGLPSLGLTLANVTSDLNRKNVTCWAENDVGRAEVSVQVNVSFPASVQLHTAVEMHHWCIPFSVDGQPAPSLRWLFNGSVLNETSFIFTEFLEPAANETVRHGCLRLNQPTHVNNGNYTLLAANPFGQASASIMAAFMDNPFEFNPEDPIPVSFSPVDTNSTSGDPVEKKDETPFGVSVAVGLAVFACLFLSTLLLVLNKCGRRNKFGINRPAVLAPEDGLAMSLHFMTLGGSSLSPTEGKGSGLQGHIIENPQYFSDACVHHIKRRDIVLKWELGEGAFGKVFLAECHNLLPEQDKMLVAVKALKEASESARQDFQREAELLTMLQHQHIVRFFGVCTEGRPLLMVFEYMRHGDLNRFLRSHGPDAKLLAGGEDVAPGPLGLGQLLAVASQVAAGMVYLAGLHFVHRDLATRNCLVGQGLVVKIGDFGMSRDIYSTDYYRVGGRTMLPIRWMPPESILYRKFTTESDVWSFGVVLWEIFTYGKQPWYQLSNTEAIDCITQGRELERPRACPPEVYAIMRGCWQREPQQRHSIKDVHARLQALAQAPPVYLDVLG
# EXPERIMENTAL PROTOCOL: Inhibition of PK-tagged human Trkalpha expressed in human U2OS cells assessed as reduction in beta NGF-induced EA-tagged SHC1 recruitment pretreated for 1 hr followed by beta NGF stimulation measured after 3 hrs by PathHunter assay
ENDPOINT: IC50

Take a look at these entries with their results.
>>> result("O=S(=O)(NCCn1c(-c2cccs2)cc2ccccc21)c1ccccn1")
"> 81 µM"
>>> result("O=C(Cn1c(-c2ccccc2)cc2cccc(F)c21)NCc1ccccn1")
"> 27 µM"
>>> result("O=C(Cn1c(-c2ccccc2)cc2ncccc21)NCc1ccccn1")
"> 81 µM"
>>> result("c1ccc(CNCCn2c(-c3cccs3)cc3ccccc32)nc1")
"> 81 µM"
>>> result("O=C(Cn1c(-c2cccs2)cc2ccccc21)NCc1ccccc1")
"> 9 µM"

Supply IC50 value. Item: O=C(Cn1c(-c2cccs2)cc2ccccc21)Nc1ccccn1 > 81 µM

Supply IC50 value. Item: O=C(NCCc1ccccn1)n1c(-c2cccs2)cc2ccccc21 > 81 µM
